Origin of measurements: BindingDB's records for patent US20240166639

STUDY SYSTEM: 5-hydroxytryptamine receptor 2A (Homo sapiens, UniProt P28223)
Sequence (P28223 whole entry): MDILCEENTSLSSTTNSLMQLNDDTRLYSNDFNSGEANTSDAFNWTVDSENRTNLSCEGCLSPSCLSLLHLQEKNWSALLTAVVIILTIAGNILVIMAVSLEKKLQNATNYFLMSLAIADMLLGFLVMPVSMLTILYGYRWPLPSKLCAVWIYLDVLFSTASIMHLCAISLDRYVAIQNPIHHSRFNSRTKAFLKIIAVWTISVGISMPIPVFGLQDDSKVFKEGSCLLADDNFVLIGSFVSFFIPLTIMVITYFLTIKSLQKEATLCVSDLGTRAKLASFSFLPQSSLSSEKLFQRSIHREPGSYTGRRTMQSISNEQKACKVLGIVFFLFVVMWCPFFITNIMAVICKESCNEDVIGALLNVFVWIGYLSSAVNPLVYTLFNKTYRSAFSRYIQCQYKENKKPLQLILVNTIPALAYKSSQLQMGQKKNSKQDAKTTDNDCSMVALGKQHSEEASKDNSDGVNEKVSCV
PROPERTY LABEL: pKi
Recall that pKi is obtained by taking minus log10 of the concentration measured in molar.

In: State the measured pKi (5-hydroxytryptamine receptor 2A (Homo sapiens, UniProt P28223)) of Cc1nc(-c2ccc(-c3ccc(C(=O)Nc4cc(OCCN(C)C)c(Br)cn4)cn3)c(C3CC3)c2)no1 [US20240166639, Example 39]
Out: 5.60
